target: human orexin receptor 1 (Homo sapiens (Human)); assay: Orexin antagonist activity, intracellular calcium FLIPR assay (orexin receptor 1); details: RBL-2H3 cells stably expressing human orexin receptor 1; orexin-A at approx. 80% maximal response; 15 min preincubation; read-out: Human Orexin1R IC50
Sequence (O43613 whole entry): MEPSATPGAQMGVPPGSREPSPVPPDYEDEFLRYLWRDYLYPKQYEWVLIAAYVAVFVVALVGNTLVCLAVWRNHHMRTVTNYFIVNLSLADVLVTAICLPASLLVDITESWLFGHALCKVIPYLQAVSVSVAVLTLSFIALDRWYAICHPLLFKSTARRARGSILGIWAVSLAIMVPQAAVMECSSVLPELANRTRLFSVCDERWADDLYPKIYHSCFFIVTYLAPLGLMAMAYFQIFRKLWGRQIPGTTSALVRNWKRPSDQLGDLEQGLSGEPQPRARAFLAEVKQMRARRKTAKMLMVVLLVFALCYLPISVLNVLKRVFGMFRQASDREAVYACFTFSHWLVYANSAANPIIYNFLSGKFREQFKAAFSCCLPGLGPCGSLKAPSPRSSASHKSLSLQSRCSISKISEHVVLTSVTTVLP
pIC50: −log10 of the molar value.
PARAMETER: pIC50

In [3]: df
Out[3]:
                                smiles_code  parameter  test_result
0  O=C(N[C@H]1CCC[C@@H]1Nc1nc2ccc(F)cc2s1)c1ncccc1F      pIC50         6.48

(A) CCOc1cccnc1C(=O)N[C@H]1CCC[C@@H]1Nc1nc2ccc(F)cc2s1
(B) O=C(N[C@H]1CCC[C@@H]1Nc1nc2ccc(Cl)cc2s1)c1ncccc1OC(F)F
(C) O=C(N[C@H]1CCC[C@@H]1Nc1nc2ccc(Cl)cc2s1)c1ncccc1-n1nccn1
Query string: Sort low-to-high on pIC50, please. Answer by naming the labels in the order asked.
Result string: B, A, C

---

molecular target: human orexin receptor 2 (Homo sapiens (Human)); assay: Orexin antagonist activity, intracellular calcium FLIPR assay (orexin receptor 2); settings: RBL-2H3 cells stably expressing human orexin receptor 2; orexin-A at approx. 80% maximal response; 15 min preincubation; read-out: Human Orexin2R IC50
Sequence (O43614 whole entry): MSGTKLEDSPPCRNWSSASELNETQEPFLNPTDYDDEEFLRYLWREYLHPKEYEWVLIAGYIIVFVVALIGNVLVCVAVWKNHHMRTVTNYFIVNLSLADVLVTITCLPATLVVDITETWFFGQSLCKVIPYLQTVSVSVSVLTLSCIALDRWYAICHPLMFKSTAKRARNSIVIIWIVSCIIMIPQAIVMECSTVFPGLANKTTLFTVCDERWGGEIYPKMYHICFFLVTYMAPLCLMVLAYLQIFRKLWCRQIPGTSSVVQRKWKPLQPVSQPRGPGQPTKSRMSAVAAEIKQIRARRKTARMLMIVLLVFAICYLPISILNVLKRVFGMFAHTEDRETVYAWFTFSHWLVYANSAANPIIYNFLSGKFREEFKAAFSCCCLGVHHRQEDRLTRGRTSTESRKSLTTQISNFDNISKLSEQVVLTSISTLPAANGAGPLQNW
PARAMETER: IC50

Use the examples below as a reference point.
>>> df
                                   compound                         target_under_test  parameter  test_result
0  O=C(N[C@H]1CCC[C@@H]1Nc1nc2ccc(Cl)cc2s1)c1ncccc1-n1nccn1  human orexin receptor 2 (Homo sapiens (Human))       IC50      > 10 µM
1  O=C(N[C@H]1CCC[C@@H]1Nc1nc2ccc(Cl)cc2o1)c1ncccc1OC(F)F  human orexin receptor 2 (Homo sapiens (Human))       IC50      > 10 µM
2  COc1cccnc1C(=O)N[C@H]1CCC[C@@H]1Nc1nc2ccc(F)cc2o1  human orexin receptor 2 (Homo sapiens (Human))       IC50      > 10 µM

Query string: Please report the measured IC50 for O=C(N[C@H]1CCC[C@@H]1Nc1nc2ccc(F)cc2s1)c1ncccc1-n1cccn1
Result string: > 10 µM

---

target: UniProt O43613; experiment: Orexin antagonist activity, intracellular calcium FLIPR assay (orexin receptor 1); settings: RBL-2H3 cells stably expressing human orexin receptor 1; orexin-A at approx. 80% maximal response; 15 min preincubation; read-out: Human Orexin1R IC50
pIC50: −log10 of the molar value.
PARAMETER: pIC50

Study these solved cases before continuing.
>>> df
                                   compound  target_under_test  parameter  test_result
0  O=C(N[C@H]1CCC[C@@H]1Nc1nc2ccc(F)cc2s1)c1ncccc1-n1cccn1     UniProt O43613      pIC50         7.68
1  COc1ccc(C(F)(F)F)nc1C(=O)N[C@H]1CCC[C@@H]1Nc1nc2ccc(F)cc2s1     UniProt O43613      pIC50         6.68
2  O=C(N[C@H]1CCC[C@@H]1Nc1nc2ccc(F)cc2o1)c1ncccc1OC(F)F     UniProt O43613      pIC50         6.54
3  O=C(N[C@H]1CCC[C@@H]1Nc1nc2ccc(Cl)cc2o1)c1ncccc1OC(F)F     UniProt O43613      pIC50         6.18
4  CCOc1ccc(C)nc1C(=O)NC1CCCC1Cc1ccc2ccccc2n1 (centres unmarked) [Example 27]     UniProt O43613      pIC50         7.15
5  O=C(N[C@H]1CCC[C@@H]1Nc1nc2ccc(F)cc2s1)c1ncccc1Br     UniProt O43613      pIC50         7.37
6  O=C(N[C@H]1CCC[C@@H]1Nc1nc2ccc(F)cc2s1)c1ncccc1-n1ccnn1     UniProt O43613      pIC50         7.07
7  CC(C)Oc1cccnc1C(=O)N[C@H]1CCC[C@@H]1Nc1nc2ccc(F)cc2s1     UniProt O43613      pIC50         7.47

(P) COC1CN(c2cccnc2C(=O)N[C@H]2CCC[C@@H]2Nc2nc3ccc(F)cc3s2)C1
(Q) COc1ccc(C)nc1C(=O)N[C@H]1CCC[C@@H]1Nc1nc2ccc(F)cc2s1
Query string: Please indicate which item has the smaller measured pIC50: P versus Q Indicate your choice by writing its label.
Result string: P

(P) COc1cccnc1C(=O)N[C@H]1CCC[C@@H]1Nc1cnc2ccccc2n1
(Q) COc1cccnc1C(=O)N(C)[C@H]1CCC[C@@H]1Nc1nc2ccc(F)cc2s1
(R) COc1cccnc1C(=O)N[C@H]1CCC[C@@H]1Nc1nc2ccc(F)cc2s1
Query string: In this exercise, place the 3 compounds in ascending sequence of their recorded pIC50. Enter labels, ranked according to the request.
Result string: P, R, Q
(P: 6.20, R: 6.77, Q: 7.85)

Recorded values, source patent US9790220B2.
